Data credit: paper PMC9482650

# TARGET OR SYSTEM: T1, MPP6, Q9NZW5
# T1 sequence (Q9NZW5 125-219, limits assumed, looked up): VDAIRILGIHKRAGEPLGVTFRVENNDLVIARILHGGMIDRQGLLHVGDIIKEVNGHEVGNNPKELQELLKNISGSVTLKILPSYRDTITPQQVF
# METHOD: holdup assay
# Design: key: below the threshold = too weak to quantify, mostly under pKd 3.1 to 4
# CONDITION LABEL: plain residues with an end cap or a label only (N-terminal biotin on a linker: ado-ado)
READOUT NAME: pKd

binder="PSVGSKKTVL [REELD1, A0A1B0GV85]" result="below the threshold"
binder="DTKNYKQTSV [CRIPT, Q9P021]" result="below the threshold"
binder="AQRARSPSDV [GPR12, P47775]" result="below the threshold"
binder="TISFTQTSQF [SLC1A1, P43005]" result="below the threshold"
binder="AEASVACSLC [PTGIR, P43119]" result="below the threshold"
binder="STKRKLASAV [NCF1, P14598]" result="below the threshold"
binder="EDGESWEYQI [TRPV6, Q9H1D0]" result=3.81
binder="DGVNEKVSCV [HTR2A, P28223]" result="below the threshold"
binder="TRKRSGEAAV [PFKM, P08237]" result="below the threshold"
binder="QSGLYESEEL [MYOT, Q9UBF9]" result="below the threshold"
binder="LKDDELKTKL [SLCO1A2, P46721]" result="below the threshold"
binder="SFISKKEWYV [NECTIN1, Q15223]" result=4.42
binder="PYPTADHMLA [JUP, P14923]" result="below the threshold"
binder="DDASLPVSDV [PLEKHA1, Q9HB21]" result="below the threshold"
binder="RDPPAEWTRV [PTPN18, Q99952]" result="below the threshold"
binder="NTLNRKTTPV [CACNG8, Q8WXS5]" result=3.93
binder="QKAPTKEFYA [SDC2, P34741]" result="below the threshold"
binder="AAVENKVTDL [PLXNB1, O43157]" result="below the threshold"
binder="MQHQRTHTRV [ZSCAN30, Q86W11]" result="below the threshold"
binder="EIPAQSPTCV [FZD10, Q9ULW2]" result="below the threshold"
binder="LAHVKHKEQI [AQP3, Q92482]" result="below the threshold"
binder="LESTTVGTSV [KARS1, Q15046]" result="below the threshold"
binder="NNNVVKVDSV [MTNR1A, P48039]" result="below the threshold"
binder="EDPRVEVTQF [SLC22A9, Q8IVM8]" result="below the threshold"
binder="RQKEVRESKC [SCN8A, Q9UQD0]" result="below the threshold"
